- tgt: human ETB receptors expressed in CHO cells (Homo sapiens)
- Sequence (P24530 27-442): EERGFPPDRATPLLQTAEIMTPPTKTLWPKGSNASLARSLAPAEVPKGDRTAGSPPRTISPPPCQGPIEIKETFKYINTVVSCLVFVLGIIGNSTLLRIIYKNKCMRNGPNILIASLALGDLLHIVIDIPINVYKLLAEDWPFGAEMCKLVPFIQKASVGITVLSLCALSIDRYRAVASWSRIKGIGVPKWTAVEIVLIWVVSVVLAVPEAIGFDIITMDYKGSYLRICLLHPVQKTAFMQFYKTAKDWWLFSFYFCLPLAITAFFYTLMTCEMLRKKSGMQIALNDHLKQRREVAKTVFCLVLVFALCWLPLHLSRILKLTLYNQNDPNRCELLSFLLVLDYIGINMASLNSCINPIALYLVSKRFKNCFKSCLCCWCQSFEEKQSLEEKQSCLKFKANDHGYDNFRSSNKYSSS
value-kind: Ki (µM)
A number alone suffices; assume µM.

compound: COC(c1ccccc1)(c1ccccc1)[C@H](Oc1nc(C)cc(CO)n1)C(=O)O [Metabolite B]
value-kind: Ki
recorded-result: 4.1

So for Cc1cc(C)nc(OC(C(=O)O)C(O)(c2ccccc2)c2ccccc2)n1 (racemic) [Metabolite C] , the logged Ki turned out to be 0.556
